experiment: A qHTS for Small Molecule Inhibitors of Shiga Toxin; details: Vero cells, Shiga toxin protein synthesis inhibition reporter; at 38.7 µM, active compounds read high; also: 0% is about no effect
Screen size: about 290,000 compounds; about 27,000 (9.3%) were called active. The entries come from a sample that favours actives as a whole.
Reported endpoint: inhibition (%)
Give bare numbers, in %.

O=S(=O)(ON(c1ccccc1)S(=O)(=O)c1ccccc1)c1ccccc1; -5.69

Would you mind giving inhibition for every compound in the list below?
1. Cc1ccc2c(c1)c1ncnc(N3CCc4ccccc4C3)c1n2C
2. COC(=O)C1(CCSC)NC(c2ccc(OC)cc2OC)C2C(=O)N(c3cccc(C(C)=O)c3)C(=O)C21 (stereo not given)
3. Cc1ccc(NC(=O)CN2C(=O)NC(C)(c3ccc(Cl)cc3)C2=O)c(Br)c1 (stereo not given)
4. COc1ccc(CC(NC(C)=O)C(=O)NC2CCN(C(=O)c3ccc(Cl)cc3)CC2)cc1 (stereo not given)

1: 61.5; 2: -5.19; 3: -4.27; 4: -3.77
